This collection of values is drawn from the supplement of paper PMC10724198.

Test system: Saccharomyces cerevisiae
experimentSummary: protein stability index of tFT-peptide fusion (C-terminal peptide) (PSI (0-1 scale)); higher = more stable (slower turnover)
appliedConditions: genetic background: wild type; temperature: 30 C
readout: protein stability index
Please give the numeric answer without any surrounding text.

Recorded results for 2 sequences are shown here.
primarySequence	protein stability index
PEESSSEGSVKR	0.679
PTPPPALPPPPL	0.699

Continue with the next sequence.
query: Fill blank: measured protein stability index of the sequence GRGGWPPWFKHK is ____.
result: 0.712

----------
# Lookup of reported protein stability index keyed by entry
Tested on: Saccharomyces cerevisiae
experimentSummary: protein stability index of tFT-peptide fusion (C-terminal peptide) (PSI (0-1 scale)); higher = more stable (slower turnover)
appliedConditions: genetic background: wild type; temperature: 30 C
Respond numerically, and do not add a unit to the figure.

Worked set:
primarySequence	protein stability index
GRRLGLLNLLSY	0.456
PLHLLPPPSSYP	0.759

query: Can you share its protein stability index? I mean this sequence: DHRELPRSRIGT
result: 0.673

----------
Tested on: Saccharomyces cerevisiae
experimentSummary: protein stability index of tFT-peptide fusion (C-terminal peptide) (PSI (0-1 scale)); higher = more stable (slower turnover)
appliedConditions: genetic background: cdc53-1; temperature: 37 C
Each entry below lists one item and its recorded protein stability index value.
Returns: the value as a bare number; no unit string appended.

Record excerpt, results attached:
primarySequence	protein stability index
GFLVPSSPRCHQ	0.72
WGRGYRWRIWDV	0.772
DSPRGRCVRLLV	0.747
FCVGVLFSCLVF	0.412

query: Which measured protein stability index value corresponds to WIGCTVKIASLY ?
result: 0.67

query: Entry SRVHHLWAILVP : reported protein stability index = ?
result: 0.265

query: Using the record for GELVLVMYGIWV , report its protein stability index.
result: 0.47

----------
System: Saccharomyces cerevisiae
experimentSummary: protein stability index of tFT-peptide fusion (C-terminal peptide) (PSI (0-1 scale)); higher = more stable (slower turnover)
appliedConditions: genetic background: cdc34-1; temperature: 37 C
readout: protein stability index

// worked examples, protein stability index included
primarySequence	protein stability index
GVFISFFFVFRF	0.154
MCVCLLVRVVPS	0.188
SRFFSCCVFPSF	0.704

# evaluate next
query: Any idea what protein stability index came out for ATAVMILCFRWC on Saccharomyces cerevisiae?
result: 0.392

----------
Test system: Saccharomyces cerevisiae
experimentSummary: protein stability index of tFT-peptide fusion (C-terminal peptide) (PSI (0-1 scale)); higher = more stable (slower turnover)
appliedConditions: genetic background: wild type; temperature: 30 C
protein stability index reference
Form rule: numeric answer, no unit written next to it.

Please review the following examples before continuing.
primarySequence	readout	testResult
FFATFVPSFLLC	protein stability index	0.305
KERHRNKRKQIA	protein stability index	0.205
LFSSFFVFRLLV	protein stability index	0.0904
FCVGVVIQLSGV	protein stability index	0.326
IVVVVRLSPILG	protein stability index	0.274

query: What value of measured protein stability index is listed for SWLAQCVVISLL ?
result: 0.364

query: Fill in: protein stability index of LFLLSVNLLLGY is ___
result: 0.112

query: State the recorded protein stability index for this entry: LWAVGVATDWGG
result: 0.689

query: Fill blank: measured protein stability index of the sequence IGWKLNRIQKNI is ____.
result: 0.193

query: Consider the sequence LPFFSFSPWWFY and give its measured protein stability index.
result: 0.24

query: Entry FVCFSFFFPFLL : reported protein stability index = ?
result: 0.148

query: For LHSDHLRIILRI , what is its reported protein stability index?
result: 0.376

----------
System: Saccharomyces cerevisiae
experimentSummary: protein stability index of tFT-peptide fusion (C-terminal peptide) (PSI (0-1 scale)); higher = more stable (slower turnover)
appliedConditions: genetic background: das1 deletion; temperature: 30 C
readout: protein stability index
Answer with a number only.

primarySequence	readout	testResult
LPPEGKPKGKDD [TAZ1 C-terminal 12 aa]	protein stability index	0.701
YWRKQYPDADLP [YAR028W C-terminal 12 aa]	protein stability index	0.714
SLSSRGKIFSST [EFR3 C-terminal 12 aa]	protein stability index	0.698
YKKVQWAKVLEQ [SFG1 C-terminal 12 aa]	protein stability index	0.709
NGSDNVTPGGRL [STE50 C-terminal 12 aa]	protein stability index	0.708

# next sequence below
query: Consider the sequence shown here: GAIMGAAAFALL [TOS6 C-terminal 12 aa] What is its recorded protein stability index?
result: 0.699

----------
Test system: Saccharomyces cerevisiae
experimentSummary: protein stability index of tFT-peptide fusion (C-terminal peptide) (PSI (0-1 scale)); higher = more stable (slower turnover)
appliedConditions: genetic background: wild type; temperature: 30 C
readout: protein stability index
Provide a numeric answer; units are not to be included.

primarySequence	measurementTarget	testResult
GVLLLGSYQWVG	Saccharomyces cerevisiae	0.313
VMKAVNKTKRNV	Saccharomyces cerevisiae	0.664
SPPPISPSLPPL	Saccharomyces cerevisiae	0.728
DPTVIKNQTWFG	Saccharomyces cerevisiae	0.722

query: Please look up its protein stability index: WVNWRWRAVVPG
result: 0.619

query: Which protein stability index value belongs to CGRPPPLFAFIP ?
result: 0.701

query: Entry under review: SGGGGGGQVAVG . Reported protein stability index?
result: 0.739

query: What protein stability index value was documented for this sequence, GGEKEREEEDKE ?
result: 0.625

query: // returns reported protein stability index for input LVAYSPRFLHSP
result: 0.669

----------
Test system: Saccharomyces cerevisiae
experimentSummary: protein stability index of tFT-peptide fusion (C-terminal peptide) (PSI (0-1 scale)); higher = more stable (slower turnover)
appliedConditions: genetic background: das1 deletion; temperature: 30 C
The following sequences are shown together with reported protein stability index values.
Respond numerically, and do not add a unit to the figure.

primarySequence	protein stability index
KRKRRKVRARSK [RPL41A C-terminal 12 aa]	0.768
SHPSFKQLLIQK [MLO1 C-terminal 12 aa]	0.677
ESYRDDSIEAED [NCR1 C-terminal 12 aa]	0.693

query: What measured protein stability index goes with CPSVEEIANETE [GCV2 C-terminal 12 aa] ?
result: 0.696

query: // lookup protein stability index for KDKKKDKSNSSI [HMO1 C-terminal 12 aa]
result: 0.702

query: Entry VDMTSIFDFMLN [POL1 C-terminal 12 aa] has what protein stability index?
result: 0.741

query: Report protein stability index for DLESLTAKLIQG [HCA4 C-terminal 12 aa] please.
result: 0.7

query: Would you kindly share the measured protein stability index for TVGTGLITRIIE [TUF1 C-terminal 12 aa] ?
result: 0.694

----------
// reported protein stability index for each item listed
Tested on: Saccharomyces cerevisiae
experimentSummary: protein stability index of tFT-peptide fusion (C-terminal peptide) (PSI (0-1 scale)); higher = more stable (slower turnover)
appliedConditions: genetic background: wild type; temperature: 30 C

See these solved cases before continuing.
primarySequence	protein stability index
PLPPPPPLPLSP	0.693
KKKANEMGKNRE	0.715
PPTFFQRSPLRP	0.681
PLPPRPPPLPLP	0.716
VLANAAGLEGFA	0.681
PPPLPPPILLRF	0.598
PLVAGRVIVTLR	0.554
ACIWRCFDAAMG	0.632

query: What does the data say about its protein stability index? Entry: RLRSWLGIALFL
result: 0.642

----------
Tested on: Saccharomyces cerevisiae
experimentSummary: protein stability index of tFT-peptide fusion (C-terminal peptide) (PSI (0-1 scale)); higher = more stable (slower turnover)
appliedConditions: genetic background: wild type; temperature: 30 C
Please use true whenever protein stability index is not below 0.7, and false whenever it is.

primarySequence	className
AVWLEAVSVSLS	false
QKPVQGICQEAN	false
ITWFRKVGAYGA	false
STPPAPPPLLPP	true
FLLVSLKQCHGR	true

query: Determine whether this sequence has protein stability index no lower than 0.7: ILVLKFLRLLSA
result: false

query: hey, is protein stability index for this one >= 0.7? VRVCWGCCGVVF
result: false

query: Confirm if protein stability index reported for the sequence RLWFPSARLRFT is 0.7 or above.
result: false

query: Has RRFLRRISAFAS a recorded protein stability index greater than or equal to 0.7?
result: false

query: Given the entry RWSYCLVFSLGL , answer whether its protein stability index meets or surpasses 0.7.
result: false

query: Would you say PIFPALPRLSPS shows protein stability index at minimum 0.7?
result: true

query: Record QQLPPARLPRRP ; criterion: protein stability index no lower than 0.7. Met?
result: true

query: Could you please find out whether SGRCGGESNDAE has protein stability index that meets 0.7 or exceeds it?
result: false

----------
System: Saccharomyces cerevisiae
experimentSummary: protein stability index of tFT-peptide fusion (C-terminal peptide) (PSI (0-1 scale)); higher = more stable (slower turnover)
appliedConditions: genetic background: wild type; temperature: 30 C
readout: protein stability index
Please state the value as a number alone, without comment.

Completed entries (count: 8):
primarySequence	testResult
ALDAELDAYMKG [YRA2 C-terminal 12 aa]	0.7
EEVETVSEHVKV [DPA10 C-terminal 12 aa]	0.691
PIRGVTGGVYKW [MRPL22 C-terminal 12 aa]	0.702
FKVASIANAQVR [ARC1 C-terminal 12 aa]	0.696
HPWFAEYYHHAS [PHO85 C-terminal 12 aa]	0.717
VTSIMDMPISRE [MVP1 C-terminal 12 aa]	0.684
VIPHRGKKPVQN [AUS1 C-terminal 12 aa]	0.681
AILREVQFEVFR [NTA1 C-terminal 12 aa]	0.707

query: What measured protein stability index goes with SRLFSEEKSSVH [YJL150W C-terminal 12 aa] ?
result: 0.694

query: Tell me the measured protein stability index of LEAATNFLLDSA [EDE1 C-terminal 12 aa] , please.
result: 0.68

query: For the sequence GMYSRAYETHTL [ERG7 C-terminal 12 aa] , what protein stability index is on record?
result: 0.696
